The reported measurements were obtained from patent US20220064286A1.

# assayed_system: cynomolgus monkey (cyno) TIGIT protein (cynomolgus monkey, UniProt A0A7N9I9V4 89-209)
# Sequence (A0A7N9I9V4 entry or part of it): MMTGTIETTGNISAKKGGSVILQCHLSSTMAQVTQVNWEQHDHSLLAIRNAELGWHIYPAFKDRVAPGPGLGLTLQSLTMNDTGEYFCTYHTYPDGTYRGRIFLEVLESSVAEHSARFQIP
# measurement_description: SPR, captured mAb
This listing pairs binders with measured koff.
Write down the value, and be sure its unit follows.

Request: For the binder h15C8.L5H1 (antibody, V domains shown, VL: I58V, Y71F, F87Y against h15C8.L1H1; FR/HVR pieces) VH: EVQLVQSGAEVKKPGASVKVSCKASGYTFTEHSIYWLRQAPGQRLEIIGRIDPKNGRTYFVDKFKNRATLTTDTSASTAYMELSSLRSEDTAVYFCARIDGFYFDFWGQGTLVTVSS VL: DIQLTQSPSFLSASVGDRVTITCKGSQNVNKYLVWYQQKPGKAPKLLIYSTDNLQSGVPSRFSGSGSGTEFTLTISSLQPEDFATYYCYQYNNGFTFGQGTKVEIK , what koff is on record?
Response: 0.000752 s⁻¹

Request: What do you have for h7E7.L4H1 (antibody, V domains shown, VL: F87Y against h7E7.L1H1; FR/HVR pieces) VH: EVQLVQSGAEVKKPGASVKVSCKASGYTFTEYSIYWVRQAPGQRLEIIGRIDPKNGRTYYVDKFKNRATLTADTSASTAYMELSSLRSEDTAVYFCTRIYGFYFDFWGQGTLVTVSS VL: DIQLTQSPSFLSASVGDRVTITCKGSQNVNKYLVWYQQKPGKAPKLLIYNTDNLQSGIPSRFSGSGSGTEYTLTISSLQPEDFATYYCYQYNNGFTFGQGTKVEIK ?
Response: 0.000274 s⁻¹

Request: What do you have for h15C8.L3H1 (antibody, V domains shown, VL: Y71F against h15C8.L1H1; FR/HVR pieces) VH: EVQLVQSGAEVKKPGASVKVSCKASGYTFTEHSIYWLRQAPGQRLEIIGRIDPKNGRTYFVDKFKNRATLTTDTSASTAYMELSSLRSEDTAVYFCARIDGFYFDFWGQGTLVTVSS VL: DIQLTQSPSFLSASVGDRVTITCKGSQNVNKYLVWYQQKPGKAPKLLIYSTDNLQSGIPSRFSGSGSGTEFTLTISSLQPEDFATYFCYQYNNGFTFGQGTKVEIK ?
Response: 0.000588 s⁻¹

Request: What do you have for h6B2.L1H1 (antibody, V domains shown, Humanized; FR/HVR pieces in order; also called h1.6B2.L1H1) VH: EVTLKESGPALVKPTQTLTLTCTFSGFSLSTYGMGVSWIRQPPGKALEWLASIWWNGNTYYNPSLKSRLTVTKDASKNQAVLTMTNMDPVDTATYYCAHTGGAVITWFAYWGQGTLVTVSS VL: DIQMTQSPSSLSASVGDRVTITCKASQSVGKNIAWYQQKPGKSPKLLIYYASNRYTGVPSRFSGSGSGTDFTFTISSLQPEDIATYYCQHIYNSPYPFGQGTKVEIK ?
Response: 0.00118 s⁻¹

Request: What do you have for h7E7.L5aH9a (antibody, V domains shown, Final humanized 7E7; keeps rat VH I47 and VL Y71; FR/HVR pieces) VH: EVQLVQSGAEVKKPGASVKVSCKASGYTFTEYSIYWVRQAPGQRLEIMGRIDPKNGRTYYVDKFKNRVTITRDTSASTAYMELSSLRSEDTAVYYCARIYGFYFDFWGQGTLVTVSS VL: DIQLTQSPSFLSASVGDRVTITCKGSQNVNKYLVWYQQKPGKAPKLLIYNTDNLQSGVPSRFSGSGSGTEYTLTISSLQPEDFATYYCYQYNNGFTFGQGTKVEIK ?
Response: 0.000182 s⁻¹
